The reported measurements were obtained from patent US9828386B2.

- System: A549 cell line
- Assay: cells
- Format: cell-based
- Applied Conditions: A549 cells, MTT, 48 h cultivation; read-out: IC50 (μM) A549
API: label(entry) gives YES if the entry's IC50 is strictly smaller than 3 µM; on equality or larger values it gives NO.

These recorded examples may help you get a feel for the data.
Compound	Tested System	Category Label
COc1cc(C2c3cc4c(cc3C(Sc3cccc(C)n3)C3COC(=O)C23)OCO4)cc(OC)c1O (stereo not shown) [Compound 24]	A549 cell line	YES
COc1cc(C2c3cc4c(cc3C(Sc3nc5ccccc5[nH]3)C3COC(=O)C23)OCO4)cc(OC)c1O (stereo not shown) [Compound 30]	A549 cell line	YES

IC50 under 3 µM? Item: COc1cc(C2c3cc4c(cc3C(Sc3nnc(NS(=O)(=O)c5ccc(C)cc5)s3)C3COC(=O)C23)OCO4)cc(OC)c1OC (stereo not shown) [Compound 17] YES

Further, for COc1cc(C2c3cc4c(cc3C(Sc3ccccn3)C3COC(=O)C23)OCO4)cc(OC)c1O (stereo not shown) [Compound 22] ? YES

Further, for COc1cc(C2c3cc4c(cc3C(Sc3ncccn3)C3COC(=O)C23)OCO4)cc(OC)c1OC (stereo not shown) [Compound 9] ? NO

Further, for COc1cc(C2c3cc4c(cc3C(O)C3COC(=O)C23)OCO4)cc(OC)c1O (stereo not shown) [4′-demethylepipodophyllotoxins, 4′-demethylepipodophyllotoxin, reference compound] ? NO

Further, for COc1cc(C2c3cc4c(cc3C(Sc3ccncc3)C3COC(=O)C23)OCO4)cc(OC)c1O (stereo not shown) [Compound 25] ? YES

====

The following compounds are listed with their measured IC50 values.
- Tested on: A549 cell line
- Assay: cells
- Format: cell-based
- Applied Conditions: A549 cells, MTT, 48 h cultivation; read-out: IC50 (μM) A549
- Text: Test of compounds of embodiment of the present invention on inhibiting tumor cell activity 3, cell lines: A549, BGC823, Hela cell line and normal human hepatocytes which are available from Wu Han boster Co., Ltd.; […]
Provide only the numeric value, understood in µM.

Observe how each entry below is paired with its result.
Compound	IC50, µM
COc1cc(C2c3cc4c(cc3C(Sc3nnc(N)s3)C3COC(=O)C23)OCO4)cc(OC)c1OC (stereo not shown) [Compound 3]	1.98
COc1cc(C2c3cc4c(cc3C(Sc3ncccc3C(=O)O)C3COC(=O)C23)OCO4)cc(OC)c1OC (stereo not shown) [Compound 6]	0.83
COc1cc(C2c3cc4c(cc3C(Sc3nc5ccccc5s3)C3COC(=O)C23)OCO4)cc(OC)c1OC (stereo not shown) [Compound 12]	3.85

Could you now consider this next compound?
For A549 cell line, provide IC50 of COc1cc(C2c3cc4c(cc3C(Sc3nc(N)n[nH]3)C3COC(=O)C23)OCO4)cc(OC)c1O (stereo not shown) [Compound 19] please. 0.93
